# Tested on: Human Dermal Fibroblasts (KMST-6)
# procedure-details: ECM ELISA assay: elastin secretion by human dermal fibroblasts
# Assay type: cell-based
# run-conditions: 5 μM, KMST-6, 48 hours, % compared to control set at 100%, normalized to total protein
The star is where a group is joined. Ac7‑β‑Lac = heptaacetyl-β-lactoside (peracetylated β-lactose), CC(=O)OC[C@H]1O[C@@H](O[C@H]2[C@H](OC(C)=O)[C@@H](OC(C)=O)[C@H](*)O[C@@H]2COC(C)=O)[C@H](OC(C)=O)[C@@H](OC(C)=O)[C@H]1OC(C)=O; Palmitoyl = CCCCCCCCCCCCCCCC(=O)*
assay-metric: Elastin Secretion at 48 hours (%)
API: value field is a number in %; no unit string.

Request: // Elastin Secretion at 48 hours lookup, key: Pal-KTTKS(Ac7-β-Lac)-OH (Palmitoyl-KTTKS(Ac7‑β‑Lac)-OH; SMILES CCCCCCCCCCCCCCCC(=O)N[C@@H](CCCCN)C(=O)N[C@H](C(=O)N[C@H](C(=O)N[C@@H](CCCCN)C(=O)N[C@@H](CO[C@@H]1O[C@H](COC(C)=O)[C@@H](O[C@@H]2O[C@H](COC(C)=O)[C@H](OC(C)=O)[C@H](OC(C)=O)[C@H]2OC(C)=O)[C@H](OC(C)=O)[C@H]1OC(C)=O)C(=O)O)[C@@H](C)O)[C@@H](C)O; listed as Homo sapiens) [GP004-6]
Result: 218.6

* * *

# Tested on: Human Dermal Fibroblasts (KMST-6)
# procedure-details: ECM ELISA assay: elastin secretion by human dermal fibroblasts
# Format: cell-based
# run-conditions: 5 μM, KMST-6, 48 hours, % compared to control set at 100%, normalized to total protein
The star is where a group is joined. Ac4‑β‑Gal = tetraacetyl-β-galactoside (peracetylated β-galactose), CC(=O)OC[C@H]1O[C@@H](*)[C@H](OC(C)=O)[C@@H](OC(C)=O)[C@H]1OC(C)=O; βGlcNAc = CC(=O)N[C@@H]1[C@@H](O)[C@H](O)[C@@H](CO)O[C@H]1*; Palmitoyl = CCCCCCCCCCCCCCCC(=O)*
Measured Elastin Secretion at 48 hours, listed per entry.
Enter your answer as a number in %; do not include the unit.

[[record]]
substance = "Pal-KTT(β-GlcNAc)KS-OH (Palmitoyl-KTT(βGlcNAc)KS-OH; SMILES CCCCCCCCCCCCCCCC(=O)N[C@@H](CCCCN)C(=O)N[C@H](C(=O)N[C@H](C(=O)N[C@@H](CCCCN)C(=O)N[C@@H](CO)C(=O)O)[C@@H](C)O[C@@H]1O[C@H](CO)[C@@H](O)[C@H](O)[C@H]1NC(C)=O)[C@@H](C)O; listed as Homo sapiens) [GP001-12]"
number = 73.00


Request: Any idea what Elastin Secretion at 48 hours came out for Pal-KTTKS(Ac4-β-Gal)-OH (Palmitoyl-KTTKS(Ac4‑β‑Gal)-OH; SMILES CCCCCCCCCCCCCCCC(=O)N[C@@H](CCCCN)C(=O)N[C@H](C(=O)N[C@H](C(=O)N[C@@H](CCCCN)C(=O)N[C@@H](CO[C@@H]1O[C@H](COC(C)=O)[C@H](OC(C)=O)[C@H](OC(C)=O)[C@H]1OC(C)=O)C(=O)O)[C@@H](C)O)[C@@H](C)O; listed as Homo sapiens) [GP002-7] on Human Dermal Fibroblasts (KMST-6)?
Result: 198.3

* * *

# System: Human Dermal Fibroblasts (KMST-6)
# procedure-details: ECM ELISA assay: elastin secretion by human dermal fibroblasts
# Format: cell-based
# run-conditions: 5 μM, KMST-6, 48 hours, % compared to control set at 100%, normalized to total protein
Primed or numbered codes have the meaning given here. The star is where a group is joined. Ac4‑β‑Glc″ = peracetylated beta-glucose, CC(=O)OC[C@H]1O[C@@H](*)[C@H](OC(C)=O)[C@@H](OC(C)=O)[C@@H]1OC(C)=O; αGalNAc = CC(=O)N[C@@H]1[C@@H](O)[C@@H](O)[C@@H](CO)O[C@@H]1*; βGlc = OC[C@H]1O[C@@H](*)[C@H](O)[C@@H](O)[C@@H]1O; Palmitoyl = CCCCCCCCCCCCCCCC(=O)*
Below: a set of entries, each annotated with reported Elastin Secretion at 48 hours.
Report field: quantity (unit follows the number).

[[record]]
substance = "Pal-KS(Ac4-β-Glc)TKS-OH (Palmitoyl-KS(Ac4‑β‑Glc″)TKS-OH; SMILES CCCCCCCCCCCCCCCC(=O)N[C@@H](CCCCN)C(=O)N[C@@H](CO[C@@H]1O[C@H](COC(C)=O)[C@@H](OC(C)=O)[C@H](OC(C)=O)[C@H]1OC(C)=O)C(=O)N[C@H](C(=O)N[C@@H](CCCCN)C(=O)N[C@@H](CO)C(=O)O)[C@@H](C)O; listed as Homo sapiens) [GP003-3]"
result = "177.1%"

[[record]]
substance = "Pal-KT(α-GalNAc)TKS-OH (Palmitoyl-KT(αGalNAc)TKS-OH; SMILES CCCCCCCCCCCCCCCC(=O)N[C@@H](CCCCN)C(=O)N[C@H](C(=O)N[C@H](C(=O)N[C@@H](CCCCN)C(=O)N[C@@H](CO)C(=O)O)[C@@H](C)O)[C@@H](C)O[C@H]1O[C@H](CO)[C@H](O)[C@H](O)[C@H]1NC(C)=O; listed as Homo sapiens) [GP001-4]"
result = "104.5%"


Request: Please give the measured Elastin Secretion at 48 hours for this substance: Pal-KT(β-Glc)TKS-OH (Palmitoyl-KT(βGlc)TKS-OH; SMILES CCCCCCCCCCCCCCCC(=O)N[C@@H](CCCCN)C(=O)N[C@H](C(=O)N[C@H](C(=O)N[C@@H](CCCCN)C(=O)N[C@@H](CO)C(=O)O)[C@@H](C)O)[C@@H](C)O[C@@H]1O[C@H](CO)[C@@H](O)[C@H](O)[C@H]1O; listed as Homo sapiens) [GP001-2]
Result: 102.8%

* * *

# Tested on: Human Dermal Fibroblasts (KMST-6)
# procedure-details: ECM ELISA assay: elastin secretion by human dermal fibroblasts
# Assay type: cell-based
# run-conditions: 5 μM, KMST-6, 48 hours, % compared to control set at 100%, normalized to total protein
Primed or numbered codes have the meaning given here. The star is where a group is joined. Ac7‑β‑Cel = heptaacetyl-β-cellobioside (peracetylated β-cellobiose), CC(=O)OC[C@H]1O[C@@H](*)[C@H](OC(C)=O)[C@@H](OC(C)=O)[C@@H]1O[C@@H]1O[C@H](COC(C)=O)[C@@H](OC(C)=O)[C@H](OC(C)=O)[C@H]1OC(C)=O; Ac7‑β‑Mal = peracetylated β-maltose, CC(=O)OC[C@H]1O[C@@H](*)[C@H](OC(C)=O)[C@@H](OC(C)=O)[C@@H]1O[C@H]1O[C@H](COC(C)=O)[C@@H](OC(C)=O)[C@H](OC(C)=O)[C@H]1OC(C)=O; Ac4‑β‑Gal = tetraacetyl-β-galactoside (peracetylated β-galactose), CC(=O)OC[C@H]1O[C@@H](*)[C@H](OC(C)=O)[C@@H](OC(C)=O)[C@H]1OC(C)=O; Ac3‑α‑GalNAc″ = peracetylated alpha-N-acetylgalactosamine, CC(=O)N[C@@H]1[C@@H](OC(C)=O)[C@@H](OC(C)=O)[C@@H](COC(C)=O)O[C@@H]1*; Ac3‑α‑Rha = triacetyl-α-rhamnoside (peracetylated α-rhamnose), CC(=O)O[C@@H]1[C@@H](OC(C)=O)[C@H](C)O[C@@H](*)[C@@H]1OC(C)=O; βGlc = OC[C@H]1O[C@@H](*)[C@H](O)[C@@H](O)[C@@H]1O; Palmitoyl = CCCCCCCCCCCCCCCC(=O)*
Could you mark each record 1 if its Elastin Secretion at 48 hours falls strictly under 200%, and -1 if it equals or exceeds it?

Record excerpt, results attached:
[[record]]
substance = "Pal-KTT(Ac7-β-Mal)KS-OH (Palmitoyl-KTT(Ac7‑β‑Mal)KS-OH; SMILES CCCCCCCCCCCCCCCC(=O)N[C@@H](CCCCN)C(=O)N[C@H](C(=O)N[C@H](C(=O)N[C@@H](CCCCN)C(=O)N[C@@H](CO)C(=O)O)[C@@H](C)O[C@@H]1O[C@H](COC(C)=O)[C@@H](O[C@H]2O[C@H](COC(C)=O)[C@@H](OC(C)=O)[C@H](OC(C)=O)[C@H]2OC(C)=O)[C@H](OC(C)=O)[C@H]1OC(C)=O)[C@@H](C)O; listed as Homo sapiens) [GP004-3]"
target_of_assay = "Human Dermal Fibroblasts (KMST-6)"
group = -1

[[record]]
substance = "Pal-KTTKS(β-Glc)-OH (Palmitoyl-KTTKS(βGlc)-OH; SMILES CCCCCCCCCCCCCCCC(=O)N[C@@H](CCCCN)C(=O)N[C@H](C(=O)N[C@H](C(=O)N[C@@H](CCCCN)C(=O)N[C@@H](CO[C@@H]1O[C@H](CO)[C@@H](O)[C@H](O)[C@H]1O)C(=O)O)[C@@H](C)O)[C@@H](C)O; listed as Homo sapiens) [GP002-4]"
target_of_assay = "Human Dermal Fibroblasts (KMST-6)"
group = 1

[[record]]
substance = "Pal-KT(Ac3-α-GalNAc)-T(Ac3-α-GalNAc)KS-OH (Palmitoyl-KT(Ac3‑α‑GalNAc″)T(Ac3‑α‑GalNAc″)KS-OH; SMILES CCCCCCCCCCCCCCCC(=O)N[C@@H](CCCCN)C(=O)N[C@H](C(=O)N[C@H](C(=O)N[C@@H](CCCCN)C(=O)N[C@@H](CO)C(=O)O)[C@@H](C)O[C@H]1O[C@H](COC(C)=O)[C@H](OC(C)=O)[C@H](OC(C)=O)[C@H]1NC(C)=O)[C@@H](C)O[C@H]1O[C@H](COC(C)=O)[C@H](OC(C)=O)[C@H](OC(C)=O)[C@H]1NC(C)=O; listed as Homo sapiens) [GP001-13]"
target_of_assay = "Human Dermal Fibroblasts (KMST-6)"
group = 1

[[record]]
substance = "Pal-KTT(Ac4-β-Gal)KS-OH (Palmitoyl-KTT(Ac4‑β‑Gal)KS-OH; SMILES CCCCCCCCCCCCCCCC(=O)N[C@@H](CCCCN)C(=O)N[C@H](C(=O)N[C@H](C(=O)N[C@@H](CCCCN)C(=O)N[C@@H](CO)C(=O)O)[C@@H](C)O[C@@H]1O[C@H](COC(C)=O)[C@H](OC(C)=O)[C@H](OC(C)=O)[C@H]1OC(C)=O)[C@@H](C)O; listed as Homo sapiens) [GP004-2]"
target_of_assay = "Human Dermal Fibroblasts (KMST-6)"
group = 1

[[record]]
substance = "Pal-KTTKS(Ac7-β-Cel)-OH (Palmitoyl-KTTKS(Ac7‑β‑Cel)-OH; SMILES CCCCCCCCCCCCCCCC(=O)N[C@@H](CCCCN)C(=O)N[C@H](C(=O)N[C@H](C(=O)N[C@@H](CCCCN)C(=O)N[C@@H](CO[C@@H]1O[C@H](COC(C)=O)[C@@H](O[C@@H]2O[C@H](COC(C)=O)[C@@H](OC(C)=O)[C@H](OC(C)=O)[C@H]2OC(C)=O)[C@H](OC(C)=O)[C@H]1OC(C)=O)C(=O)O)[C@@H](C)O)[C@@H](C)O; listed as Homo sapiens) [GP004-10]"
target_of_assay = "Human Dermal Fibroblasts (KMST-6)"
group = -1


From here, focus on the item given below.
Request: API: query returns whether the substance falls strictly under 200% in Elastin Secretion at 48 hours. Query: Pal-KTTKS(Ac3-α-Rha)-OH (Palmitoyl-KTTKS(Ac3‑α‑Rha)-OH; SMILES CCCCCCCCCCCCCCCC(=O)N[C@@H](CCCCN)C(=O)N[C@H](C(=O)N[C@H](C(=O)N[C@@H](CCCCN)C(=O)N[C@@H](CO[C@@H]1O[C@@H](C)[C@H](OC(C)=O)[C@@H](OC(C)=O)[C@H]1OC(C)=O)C(=O)O)[C@@H](C)O)[C@@H](C)O; listed as Homo sapiens) [GP004-8]
Result: 1
